system-under-test: Wnt-responsive promoter (TCF/LEF)
assay-notes: Wnt-dependent luciferase reporter assay
pEC50: −log10 of the molar value. Where a SMILES comes first, the peptide text is derived from it.

{"molecule": "CC[C@H](C)[C@H](NC(=O)[C@H](CC(C)C)NC(=O)[C@@H](NC(=O)[C@H](Cc1c[nH]c2ccccc12)NC(=O)[C@@H](N)Cc1c[nH]cn1)[C@@H](C)CC)C(=O)N[C@@H](CS)C(=O)N[C@@H](Cc1ccccc1)C(=O)N[C@@H](Cc1c[nH]c2ccccc12)C(=O)NCC(=O)O [compound 118] (H-HWILICFWG-OH)", "pEC50": "> 5.12"}
{"molecule": "CSCC[C@H](NC(=O)[C@H](CCCNC(=N)N)NC(=O)[C@H](CO)NC(=O)[C@@H](N)CCSC)C(=O)N[C@@H](Cc1c[nH]c2ccccc12)C(=O)N[C@@H](Cc1ccccc1)C(=O)N[C@@H](CC(C)C)C(=O)N[C@@H](CC(N)=O)C(=O)N[C@@H](CO)C(=O)N[C@@H](Cc1ccccc1)C(=O)N[C@@H](Cc1c[nH]c2ccccc12)C(=O)NCC(=O)O [compound 70] (H-MSRMWFLNSFWG-OH)", "pEC50": "< 4.52"}
{"molecule": "CC[C@H](C)[C@H](NC(=O)[C@H](CC(C)C)NC(=O)[C@H](Cc1ccccc1)NC(=O)[C@H](Cc1c[nH]c2ccccc12)NC(=O)[C@@H](N)CCSC)C(=O)N[C@@H](CO)C(=O)N[C@@H](Cc1ccccc1)C(=O)N[C@@H](Cc1c[nH]c2ccccc12)C(=O)NCC(=O)O [compound 17] (H-MWFLISFWG-OH)", "pEC50": "> 5.12"}
{"molecule": "CC[C@H](C)[C@H](NC(=O)[C@H](CC(C)C)NC(=O)[C@H](Cc1ccccc1)NC(=O)[C@H](Cc1c[nH]c2ccccc12)NC(=O)[C@H](CCSC)NC(=O)[C@H](CCCNC(=N)N)NC(=O)[C@H](CO)NC(=O)[C@@H](N)CCSC)C(=O)N[C@@H](CO)C(=O)N[C@@H](CO)C(=O)N[C@@H](Cc1c[nH]c2ccccc12)C(=O)NCC(=O)O [compound 54] (H-MSRMWFLISSWG-OH)", "pEC50": "4.65 to 4.82"}
{"molecule": "CC[C@H](C)[C@H](NC(=O)[C@H](CC(C)C)NC(=O)[C@H](Cc1ccccc1)NC(=O)[C@H](Cc1c[nH]c2ccccc12)NC(=O)[C@@H](NC(=O)[C@H](CCCNC(=N)N)NC(=O)[C@H](CO)NC(=O)[C@@H](N)CCSC)[C@@H](C)O)C(=O)N[C@@H](CO)C(=O)N[C@@H](Cc1ccccc1)C(=O)N[C@@H](Cc1c[nH]c2ccccc12)C(=O)NCC(=O)O [compound 48] (H-MSRTWFLISFWG-OH)", "pEC50": "4.82 to 5.12"}
{"molecule": "CC[C@H](C)[C@H](NC(=O)[C@H](CC(C)C)NC(=O)[C@H](Cc1ccccc1)NC(=O)[C@H](Cc1c[nH]c2ccccc12)NC(=O)[C@H](CCCCN)NC(=O)[C@H](CCCNC(=N)N)NC(=O)[C@H](CO)NC(=O)[C@@H](N)CCSC)C(=O)N[C@@H](CO)C(=O)N[C@@H](Cc1ccccc1)C(=O)N[C@@H](Cc1c[nH]c2ccccc12)C(N)=O [compound 87] (H-MSRKWFLISFW-NH2)", "pEC50": "< 4.52"}

Reference for the values: patent US12441768B2
